The origin of these recorded values is patent US9409892B2.

- EXPERIMENTAL_SYSTEM: PHD1 (EGLN2) (Homo sapiens (Human))
- Sequence (Q96KS0 whole entry): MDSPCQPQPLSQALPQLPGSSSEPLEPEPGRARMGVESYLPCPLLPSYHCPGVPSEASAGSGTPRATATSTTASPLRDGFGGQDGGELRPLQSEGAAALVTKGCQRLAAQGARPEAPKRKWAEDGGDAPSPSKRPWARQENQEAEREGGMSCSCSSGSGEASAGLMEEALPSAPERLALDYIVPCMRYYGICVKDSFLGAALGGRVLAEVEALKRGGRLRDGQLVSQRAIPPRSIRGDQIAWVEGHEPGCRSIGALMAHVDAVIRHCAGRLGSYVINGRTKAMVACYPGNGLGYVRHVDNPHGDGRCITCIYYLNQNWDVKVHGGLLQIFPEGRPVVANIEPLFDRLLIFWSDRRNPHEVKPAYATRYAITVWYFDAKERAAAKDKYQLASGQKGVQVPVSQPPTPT
- PROCEDURE_TEXT: HIF-PH assay (14CO2 capture), PHD1 enzyme inhibition
- Type: biochemical
- CONDITION: Table 1; ratio of the IC50 of the compound for each enzyme
# cutoff 9 applies to PHD2/PHD1; >= gives condition met, < gives condition not met

// below: answered compounds
compound="CC(C)(CNC(=O)c1ncc2cc(-c3ccccc3)ccc2c1O)C(=O)O [Compound 129]" classification="condition not met"
compound="CC(C)(CNC(=O)c1nc(C#N)c2cc(NC(=O)NCc3ccccc3)ccc2c1O)C(=O)O [Compound 162]" classification="condition met"
compound="O=C(O)CCNC(=O)c1nc(C(F)(F)F)c2cc(Oc3ccccc3)ccc2c1O [Compound 145]" classification="condition not met"
compound="N#Cc1nc(C(=O)NCC2(C(=O)O)CCCC2)c(O)c2ccc(Oc3ccccc3)cc12 [Compound 19]" classification="condition met"
compound="CC(C)(CNC(=O)c1nc(C#N)c2cc(Oc3cc(F)ccc3Cl)ccc2c1O)C(=O)O [Compound 31]" classification="condition not met"

Entry CC(C)(CNC(=O)c1nc(C#N)c2cc(Oc3cccc4ccccc34)ccc2c1O)C(=O)O [Compound 43] : is its PHD2/PHD1 no less than 9?
condition not met

Entry O=C(O)CCNC(=O)c1ncc2cc(NC(=O)Nc3ccc(F)cc3)ccc2c1O [Compound 141] : is its PHD2/PHD1 no less than 9?
condition met

---

- EXPERIMENTAL_SYSTEM: PHD2 (EGLN1) (Homo sapiens (Human))
- Sequence (Q9GZT9 whole entry): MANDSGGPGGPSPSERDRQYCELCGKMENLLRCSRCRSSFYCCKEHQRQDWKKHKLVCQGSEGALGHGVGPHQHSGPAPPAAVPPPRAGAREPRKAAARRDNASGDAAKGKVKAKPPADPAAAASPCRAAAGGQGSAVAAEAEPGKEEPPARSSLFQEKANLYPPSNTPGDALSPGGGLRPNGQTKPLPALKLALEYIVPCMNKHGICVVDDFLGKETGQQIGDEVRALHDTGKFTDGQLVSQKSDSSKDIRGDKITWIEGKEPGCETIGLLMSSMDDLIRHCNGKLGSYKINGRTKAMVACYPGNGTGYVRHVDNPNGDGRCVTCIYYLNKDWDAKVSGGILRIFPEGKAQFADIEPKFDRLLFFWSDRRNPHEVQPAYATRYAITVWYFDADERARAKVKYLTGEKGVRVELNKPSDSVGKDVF
- PROCEDURE_TEXT: HIF-PH assay (14CO2 capture), PHD2 enzyme inhibition
- Type: biochemical
- CONDITION: Table 1; individual measurement; read-out: IC50 (μM) PHD2
I'd appreciate it if you marked entries 1 (yes) when IC50 is lower than 30 µM and 0 (no) when it is not.

molecule="O=C(O)CCNC(=O)c1ncc2cc(NC(=O)Nc3ccc(F)cc3)ccc2c1O [Compound 141]" classification="0 (no)"

Please state whether IC50 is below 30 µM for CC(C)(CNC(=O)c1ncc2cc(Oc3ccccc3)ccc2c1O)C(=O)O [Compound 2]
0 (no)

---

- EXPERIMENTAL_SYSTEM: PHD1 (EGLN2) (Homo sapiens (Human))
- PROCEDURE_TEXT: HIF-PH assay (14CO2 capture), PHD1 enzyme inhibition
- Format: biochemical
- CONDITION: Table 1; ratio of the IC50 of the compound for each enzyme
Exercise: for every item that follows, state its recorded PHD2/PHD1.
Numbers only.

Examples with their reported PHD2/PHD1 follow.
compound="O=C(O)CCNC(=O)c1ncc2ccc(Oc3ccccc3)cc2c1O [Compound 112]" recorded_number=8
compound="C[C@@H](CC(=O)O)NC(=O)c1nc(C#N)c2cc(Oc3ccccc3)ccc2c1O [Compound 78]" recorded_number=30
compound="N#Cc1nc(C(=O)NCCC(=O)O)c(O)c2ccc(Oc3ccccc3)cc12 [Compound 10]" recorded_number=5
compound="N#Cc1nc(C(=O)NCCC(=O)O)c(O)c2ccc(Oc3ccc(F)cc3Cl)cc12 [Compound 97]" recorded_number=6

Fill in PHD2/PHD1 for each of the 4 compounds listed.
1. Cc1ccc(Oc2ccc3c(O)c(C(=O)NCC(C)(C)C(=O)O)nc(C#N)c3c2)cc1 [Compound 44]
2. CC(C)(CNC(=O)c1nc(C#N)c2cc(Oc3ccc4ccccc4c3)ccc2c1O)C(=O)O [Compound 59]
3. COc1ccc(Oc2ccc3c(O)c(C(=O)NCC(C)(C)C(=O)O)nc(C#N)c3c2)cc1 [Compound 20]
4. Cc1cccc(C)c1Oc1ccc2c(C#N)nc(C(=O)NCCCC(=O)O)c(O)c2c1 [Compound 110]

[14, 6.5, 15, 6]
